# test_details: CCC extraction with DME of clarified fermentation broth from Clostridium acetobutylicum, GC and DNS assay
# Type: physicochemical
# setup_conditions: Run 3, Raffinate, time 70 min
# Method: This example describes three different runs of the CCC with fermentation broth from Clostridium acetobutylicum. […] The fermentation was intentionally interrupted prior to completion. The extraction column operated at room temperature (˜25° C.) throughout the column. Periodic extract and raffinate samples were taken and analyzed for the constituents in the extract and raffinate discharges. This example describes three different runs. […] All components were quantified in the extract and raffinate. […]
recorded_endpoint: concentration in sample

Solved cases below.
- compound: "CCO"
  concentration in sample: "1560 µg/mL"
- compound: "CC(=O)C(C)O (stereo not drawn)"
  concentration in sample: "0 µg/mL"
- compound: "CCCC(=O)O [butyrate]"
  concentration in sample: "950 µg/mL"
- compound: "CC(C)=O"
  concentration in sample: "110 µg/mL"
- compound: "CC(=O)O [acetate]"
  concentration in sample: "6840 µg/mL"

Next compound, concentration in sample to be filled in.
## Task Please give the measured concentration in sample for this compound: CC(C)CO
## Result 430 µg/mL
